molecular target: T1, GPIb on human platelets (human, UniProt P07359 17-652; P13224 26-206); test: inhibition of vWf binding to platelets in PRP, flow cytometry (FITC anti-human vWf)
T1 construct: whole, on cells; also called platelet GPIb
No end group written: not given here.
REPORTED_METRIC: Peptide Concentration at Ic50
Record the result as a number with its unit.

Reference set, count: 3
# BINDER, Peptide Concentration at Ic50
records = [
    ("CGGGGGGRDKLGIYAHS (other, also: coupled through vinyl sulfone to 500 kDa hyperbranched polyglycerol, about 10 peptides per HPG, Peptide-polymer conjugate) [LR10 (HPG conjugate with 10 L-retro peptides per HPG)]", "41 µM"),
    ("CGGGGGGSHAYIGLKDR (L-amino acids; free peptide) [L-CGGGGGGSHAYIGLKDR (L-peptide)]", "48 µM"),
    ("CGGGGGGRDKLGIYAHS (other, also: coupled via vinyl sulfone to 500 kDa hyperbranched polyglycerol (HPG), about 100 peptides per HPG, Peptide-polymer conjugate) [LR100 (HPG conjugate with 100 L-retro peptides per HPG)]", "22 µM"),
]

Please look at this binder and report its Peptide Concentration at Ic50: CGGGGGGRDKLGIYAHS (Linker CGGGGGG followed by the reversed mimotope; L-amino acids; free peptide; also called LR-pep; LR-peptide) [L-CGGGGGGRDKLGIYAHS (L-retro peptide)]
34 µM

These entries and their values trace back to patent US20100075908A1.
